List of cytotoxicity at 70.5 h values.
# Procedure Details: Human HepG2 cell viability assay in 384 well format
# Format: toxicity, cell-based
# Parameters: dose 125 nL, time 70.5 hour; concentration not given beside the values
# Stated Conditions: HepG2 cells, read-out: Inhibition
Write your answer as a measured quantity: the number, then the unit.

Here are 2 molecules together with their reported answers.
>>> df
                                   molecule  value_observed
0  CC(C(=O)Nc1nccs1)N(C)Cc1cccc(C#N)c1 (stereo not drawn)          -11.6%
1   COc1ccccc1OC1(C(=O)O)CCN(c2nccnc2OC)CC1           23.1%

Now look at this entry.
Exercise: What does the record list as cytotoxicity at 70.5 h for `Cc1nsc(C(=O)N2CCc3ccccc3C2)n1` ?
Key: 28.2%
